pIC50: −log10 of the molar value.
CREBBP (Homo sapiens, UniProt Q92793) measurements of pIC50, listed per entry.
Sequence (Q92793 whole entry): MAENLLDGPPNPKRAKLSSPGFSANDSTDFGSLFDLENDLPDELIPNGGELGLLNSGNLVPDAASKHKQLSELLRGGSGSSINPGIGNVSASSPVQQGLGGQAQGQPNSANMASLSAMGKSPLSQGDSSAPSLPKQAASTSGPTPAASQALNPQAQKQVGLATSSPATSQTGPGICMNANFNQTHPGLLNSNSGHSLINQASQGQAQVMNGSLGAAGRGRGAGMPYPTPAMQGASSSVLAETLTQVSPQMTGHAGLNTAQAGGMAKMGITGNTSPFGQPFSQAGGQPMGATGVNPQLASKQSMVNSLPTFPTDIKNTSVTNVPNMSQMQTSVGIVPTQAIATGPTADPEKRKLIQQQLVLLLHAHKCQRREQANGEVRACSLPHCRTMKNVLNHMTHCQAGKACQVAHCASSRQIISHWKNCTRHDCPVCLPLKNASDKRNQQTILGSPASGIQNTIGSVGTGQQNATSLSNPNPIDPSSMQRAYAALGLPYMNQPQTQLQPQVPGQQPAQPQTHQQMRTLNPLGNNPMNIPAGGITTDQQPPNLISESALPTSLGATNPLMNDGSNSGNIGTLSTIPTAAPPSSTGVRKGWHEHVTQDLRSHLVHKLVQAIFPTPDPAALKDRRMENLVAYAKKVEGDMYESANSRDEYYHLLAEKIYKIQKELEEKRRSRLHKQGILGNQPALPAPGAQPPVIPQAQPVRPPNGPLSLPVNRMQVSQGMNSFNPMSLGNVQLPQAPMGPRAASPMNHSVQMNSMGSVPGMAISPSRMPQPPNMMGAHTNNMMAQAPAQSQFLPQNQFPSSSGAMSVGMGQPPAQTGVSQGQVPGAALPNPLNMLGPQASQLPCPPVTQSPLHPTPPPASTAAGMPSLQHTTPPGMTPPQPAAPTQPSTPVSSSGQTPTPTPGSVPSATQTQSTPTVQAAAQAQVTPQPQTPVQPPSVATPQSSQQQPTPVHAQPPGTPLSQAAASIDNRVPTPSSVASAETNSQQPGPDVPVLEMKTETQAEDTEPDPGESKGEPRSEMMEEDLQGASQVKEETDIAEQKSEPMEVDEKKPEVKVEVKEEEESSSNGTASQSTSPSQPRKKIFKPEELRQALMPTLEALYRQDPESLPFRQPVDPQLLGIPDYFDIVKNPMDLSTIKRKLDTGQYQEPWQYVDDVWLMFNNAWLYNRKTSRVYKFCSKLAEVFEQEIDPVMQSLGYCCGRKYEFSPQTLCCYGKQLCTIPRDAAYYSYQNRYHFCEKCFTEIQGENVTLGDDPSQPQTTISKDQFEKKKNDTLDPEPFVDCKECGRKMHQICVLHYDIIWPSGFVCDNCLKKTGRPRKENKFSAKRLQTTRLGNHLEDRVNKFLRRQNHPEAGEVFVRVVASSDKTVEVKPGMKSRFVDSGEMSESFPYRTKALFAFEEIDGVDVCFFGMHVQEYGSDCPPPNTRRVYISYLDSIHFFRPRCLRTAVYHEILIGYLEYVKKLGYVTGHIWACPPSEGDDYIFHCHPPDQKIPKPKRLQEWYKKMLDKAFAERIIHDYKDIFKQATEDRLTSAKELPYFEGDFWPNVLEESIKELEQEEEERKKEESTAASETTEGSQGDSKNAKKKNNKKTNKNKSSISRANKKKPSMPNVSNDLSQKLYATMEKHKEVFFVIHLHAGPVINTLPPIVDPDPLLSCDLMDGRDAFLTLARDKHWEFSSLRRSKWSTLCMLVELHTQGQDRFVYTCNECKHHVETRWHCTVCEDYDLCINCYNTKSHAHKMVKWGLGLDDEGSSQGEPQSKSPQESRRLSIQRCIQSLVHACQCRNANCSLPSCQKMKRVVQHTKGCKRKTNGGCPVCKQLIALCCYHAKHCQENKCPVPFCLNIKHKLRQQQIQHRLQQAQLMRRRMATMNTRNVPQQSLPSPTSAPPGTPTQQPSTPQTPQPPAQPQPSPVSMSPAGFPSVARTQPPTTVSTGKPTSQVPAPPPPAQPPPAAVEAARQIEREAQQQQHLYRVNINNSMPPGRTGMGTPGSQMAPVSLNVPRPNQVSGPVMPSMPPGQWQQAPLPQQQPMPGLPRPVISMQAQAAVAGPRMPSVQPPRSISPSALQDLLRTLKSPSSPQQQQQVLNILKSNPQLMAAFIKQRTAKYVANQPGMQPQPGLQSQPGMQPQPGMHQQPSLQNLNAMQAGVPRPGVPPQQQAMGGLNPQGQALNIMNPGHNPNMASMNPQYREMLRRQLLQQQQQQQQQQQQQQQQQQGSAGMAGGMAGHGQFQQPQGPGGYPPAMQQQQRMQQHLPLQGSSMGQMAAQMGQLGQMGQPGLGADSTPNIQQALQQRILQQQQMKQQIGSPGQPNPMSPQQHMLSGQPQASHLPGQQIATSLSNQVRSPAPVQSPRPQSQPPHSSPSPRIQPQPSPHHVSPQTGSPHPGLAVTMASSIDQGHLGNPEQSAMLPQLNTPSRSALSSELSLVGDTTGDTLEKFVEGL
QUANTITY_KIND: pIC50

[I] COc1ccc(C2(C(=O)N3CCC[C@@H]3C(=O)Nc3cccc4[nH]ncc34)CCCC2)cc1
[II] COc1ccc(C2(C(=O)N3CS(=O)(=O)C[C@@H]3C(=O)Nc3ccc4[nH]ccc4n3)CCCC2)cc1
Of I and II , whose reported pIC50 is numerically smaller? Please indicate the selected item by its label.
I
(I: 6.66, II: 7.43)

[P] COc1ccc(C2(C(=O)N3C[C@H](F)C[C@@H]3C(=O)Nc3ccc4[nH]ncc4n3)CCCCC2)cc1F
[Q] COc1ccc(C2(C(=O)N(C)[C@@H](C(=O)Nc3ccc4[nH]ncc4n3)[C@@H](C)O)CCC(F)(F)CC2)cc1
// task: argmin of pIC50 over [ P , Q ] # answer = label of selected item
Q
